Value source: ChEMBL document CHEMBL4418497

experimental_system: Serine hydroxymethyltransferase, mitochondrial (Homo sapiens)
Sequence (P34897 whole entry): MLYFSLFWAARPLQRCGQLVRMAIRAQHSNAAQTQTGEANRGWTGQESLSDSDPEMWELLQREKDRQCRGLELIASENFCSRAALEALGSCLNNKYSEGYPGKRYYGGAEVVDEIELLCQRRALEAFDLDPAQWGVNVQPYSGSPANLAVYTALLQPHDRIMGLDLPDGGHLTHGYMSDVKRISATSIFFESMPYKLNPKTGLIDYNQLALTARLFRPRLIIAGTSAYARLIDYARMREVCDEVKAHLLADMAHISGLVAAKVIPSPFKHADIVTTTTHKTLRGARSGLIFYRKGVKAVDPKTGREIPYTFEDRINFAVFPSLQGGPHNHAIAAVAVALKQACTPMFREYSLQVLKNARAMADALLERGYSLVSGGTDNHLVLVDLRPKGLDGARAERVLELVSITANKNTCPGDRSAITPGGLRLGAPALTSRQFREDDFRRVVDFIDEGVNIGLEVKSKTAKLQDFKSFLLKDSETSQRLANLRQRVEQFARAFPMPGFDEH
assay_method_text: Inhibition of His-tagged human recombinant SHMT2 expressed in Escherichia coli BLR(DE3) assessed as reduction in NADPH level using L-serine, THF and NADP+ incubated for 5 mins by SHMT2-MTHFD coupled reaction based fluorescence assay
conditions_used: read-out: IC50
pIC50: −log10 of the molar value.

| compound | pIC50 |
| --- | --- |
| CC(C)Cn1cc(NC(=O)Nc2cc(F)ccc2F)c2ccccc2c1=O | 5.37 |
| CC(C)Cn1cc(NC(=O)Nc2cccnc2)c2ccccc2c1=O | 5.65 |
| CC1CC(C)CN(CCCNC(=O)Nc2cn(C)c(=O)c3ccccc23)C1 (stereo unspecified) | 4.97 |
| COc1ccc(NC(=O)N2CCN3CCCCC3C2)cc1OC (stereo unspecified) | 5.47 |
| CC(C)Cn1cc(NC(=O)Nc2ccc(F)cc2Cl)c2ccccc2c1=O | 5.73 |
| COCCCNc1nc(Nc2ccc(OC)cc2)c2cnn(C)c2n1 | 5.63 |

----------
Let's look at some compounds and their measured IC50.
experimental_system: Serine hydroxymethyltransferase, mitochondrial (Homo sapiens)
assay_method_text: Inhibition of His-tagged human recombinant SHMT2 expressed in Escherichia coli BLR(DE3) assessed as reduction in NADPH level using L-serine, THF and NADP+ incubated for 5 mins by SHMT2-MTHFD coupled reaction based fluorescence assay
conditions_used: read-out: IC50

| smiles_structure | display_unit | IC50 |
| --- | --- | --- |
| O=C(CSc1nc2ncccc2o1)Nc1ccc(S(=O)(=O)N2CCOCC2)cc1 | nM | 2630 |
| COc1ccc(Nc2nc(Nc3ccc(OC)c(Cl)c3)c3cnn(C)c3n2)c(OC)c1 | nM | 2450 |
| CC(=O)Nc1ccc2nc(SCc3cc(=O)n4nc(C)sc4n3)sc2c1 | nM | 3090 |

----------
experimental_system: Serine hydroxymethyltransferase, mitochondrial (Homo sapiens, UniProt P34897)
Sequence (P34897 whole entry): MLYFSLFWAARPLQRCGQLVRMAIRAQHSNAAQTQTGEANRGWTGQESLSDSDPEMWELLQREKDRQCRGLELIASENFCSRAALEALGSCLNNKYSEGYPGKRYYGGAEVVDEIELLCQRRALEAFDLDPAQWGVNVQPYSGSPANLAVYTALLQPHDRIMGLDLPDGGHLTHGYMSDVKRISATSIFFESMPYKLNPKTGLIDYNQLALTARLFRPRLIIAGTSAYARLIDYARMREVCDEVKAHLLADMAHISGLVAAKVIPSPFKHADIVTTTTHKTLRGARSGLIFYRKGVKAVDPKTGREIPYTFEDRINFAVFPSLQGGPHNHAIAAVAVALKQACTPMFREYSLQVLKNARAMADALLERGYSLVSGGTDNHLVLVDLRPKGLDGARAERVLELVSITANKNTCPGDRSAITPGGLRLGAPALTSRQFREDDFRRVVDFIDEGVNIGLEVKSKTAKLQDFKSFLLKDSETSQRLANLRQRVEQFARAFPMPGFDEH
assay_method_text: Inhibition of His-tagged human recombinant SHMT2 expressed in Escherichia coli BLR(DE3) assessed as reduction in NADPH level using L-serine, THF and NADP+ incubated for 5 mins by SHMT2-MTHFD coupled reaction based fluorescence assay
conditions_used: read-out: IC50
pIC50: −log10 of the molar value.

| molecule | experimental_system | pIC50 |
| --- | --- | --- |
| Cn1cc(NC(=O)NCC2CCCO2)c2ccccc2c1=O (configuration not stated) | Serine hydroxymethyltransferase, mitochondrial (Homo sapiens, UniProt P34897) | 5.35 |
| CC(C)Cn1cc(NC(=O)NCCc2ccsc2)c2ccccc2c1=O | Serine hydroxymethyltransferase, mitochondrial (Homo sapiens, UniProt P34897) | 5.78 |
| C=CCn1c(=O)sc2cc(NC(=O)Cc3ccc(F)cc3)ccc21 | Serine hydroxymethyltransferase, mitochondrial (Homo sapiens, UniProt P34897) | 4.99 |
| COc1cc(OC)c(NC(=O)Nc2cn(CC(C)C)c(=O)c3ccccc23)cc1Cl | Serine hydroxymethyltransferase, mitochondrial (Homo sapiens, UniProt P34897) | 5.53 |
| O=C(Nc1ccc2c(c1)OCCO2)N1CCSc2ncccc21 | Serine hydroxymethyltransferase, mitochondrial (Homo sapiens, UniProt P34897) | 5.56 |
| CC(C)Cn1cc(NC(=O)NC(C)c2ccccc2)c2ccccc2c1=O (configuration not stated) | Serine hydroxymethyltransferase, mitochondrial (Homo sapiens, UniProt P34897) | 5.56 |
| Cc1cc2nc(CSc3nc4ccc(NC(=O)CCC5CCCC5)cc4s3)cc(=O)n2o1 | Serine hydroxymethyltransferase, mitochondrial (Homo sapiens, UniProt P34897) | 5.02 |
